tested_on: Drosophila melanogaster dNK (Drosophila melanogaster, UniProt Q9XZT6)
Sequence (Q9XZT6 whole entry): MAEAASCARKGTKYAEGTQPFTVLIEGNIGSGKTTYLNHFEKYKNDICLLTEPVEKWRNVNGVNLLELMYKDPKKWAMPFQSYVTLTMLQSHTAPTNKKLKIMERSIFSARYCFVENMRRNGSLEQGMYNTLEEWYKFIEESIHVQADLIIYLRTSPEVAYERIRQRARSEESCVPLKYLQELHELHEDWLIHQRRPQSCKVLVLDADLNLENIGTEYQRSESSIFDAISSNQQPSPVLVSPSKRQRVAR
assay_comment: Phosphorylation assay (spectrophotometric coupled-enzyme), D. melanogaster dNK
Type: biochemical
condition_description: substrate at 100 μM; 37° C.; 1 mM ATP; triplicate
Experimental: Compounds of the invention were also tested in a phosphorylation assay using three deoxynucleoside kinases. […] The compounds were at substrate concentration of 100 μM. Kinetic assay. […] Assays were performed at 37° C. by measuring the absorbance change at 340 nm. […]
Field: D. melanogaster dNK substrate phosphorylation. Provide a value for each of the compounds that follow.

// field: D. melanogaster dNK substrate phosphorylation; key: CC1(CO)CC(n2ccc(N)nc2=O)O[C@@H]1CO (mixture of isomers) ; value = 5.94 10^6 μmol/min mg

// field: D. melanogaster dNK substrate phosphorylation; key: CC1(CO)C[C@H](n2ccc(=O)[nH]c2=O)O[C@@H]1CO (mixture of isomers) ; value = 0.22 10^6 μmol/min mg

// field: D. melanogaster dNK substrate phosphorylation; key: COC(=O)c1cn([C@H]2S[C@@H](CO)C(O)[C@@H]2O)nn1 (some centres unmarked) ; value = <0.1 10^6 μmol/min mg

// field: D. melanogaster dNK substrate phosphorylation; key: Cc1cc(=O)[nH]c(=O)n1[C@H]1CC(C)(CO)[C@@H](CO)O1 (mixture of isomers) ; value = <0.1 10^6 μmol/min mg

// field: D. melanogaster dNK substrate phosphorylation; key: Cc1cc(=O)[nH]c(=O)n1[C@H]1CC2(C)C(=O)OC[C@H]2O1 (single isomer, unassigned) ; value = <0.1 10^6 μmol/min mg

// field: D. melanogaster dNK substrate phosphorylation; key: CC1(CO)C[C@H](n2ccc(N)nc2=O)O[C@@H]1CO (mixture of isomers) ; value = 0.35 10^6 μmol/min mg

// field: D. melanogaster dNK substrate phosphorylation; key: COC(=O)C1(C)C[C@H](n2ccc(=O)[nH]c2=O)O[C@@H]1CO (mixture of isomers) ; value = <0.1 10^6 μmol/min mg

// field: D. melanogaster dNK substrate phosphorylation; key: CC1(C(N)=O)CC(n2ccc(N)nc2=O)O[C@@H]1CO (mixture of isomers) ; value = 0.2 10^6 μmol/min mg

----------
assay_comment: MTT cell proliferation assay, PFSK-1
Assay type: cell-based
condition_description: human, PFSK-1 cells, concentration causing 50% cell death of initial cell count over 24 hours, 1% DMSO
quantity_measured: CC50 at 24 h

// field: CC50 at 24 h; key: CCOC(=O)[C@@H]1O[C@H](n2cc(F)c(=O)[nH]c2=O)CC1(C)C(=O)OCC (stereo in doubt) ; value = > 460 µM

// field: CC50 at 24 h; key: CC1(CO)C[C@H](n2ccc(=O)[nH]c2=O)O[C@@H]1CO (mixture of isomers) ; value = > 500 µM

// field: CC50 at 24 h; key: Cc1cc(=O)[nH]c(=O)n1[C@H]1CC2(C)C(=O)OC[C@H]2O1 (single isomer, unassigned) ; value = > 500 µM

// field: CC50 at 24 h; key: Cc1cn([C@H]2CC(C)(CO)[C@@H](CO)O2)c(=O)[nH]c1=O (mixture of isomers) ; value = > 500 µM

// field: CC50 at 24 h; key: CC1(CO)CC(n2ccc(N)nc2=O)O[C@@H]1CO (mixture of isomers) ; value = > 500 µM

// field: CC50 at 24 h; key: CC1(CO)C[C@H](n2ccc(N)nc2=O)O[C@@H]1CO (mixture of isomers) ; value = > 500 µM

// field: CC50 at 24 h; key: C[C@@]12CC(n3cc(F)c(N)nc3=O)O[C@@H]1COC2=O (mixture of isomers) ; value = > 500 µM

// field: CC50 at 24 h; key: CC1(C(N)=O)CC(n2ccc(N)nc2=O)O[C@@H]1CO (mixture of isomers) ; value = > 500 µM

// field: CC50 at 24 h; key: CCOC(=O)[C@@H]1O[C@H](n2ccc(=O)[nH]c2=O)CC1(C)C(=O)OCC (some centres unmarked) ; value = > 460 µM

// field: CC50 at 24 h; key: Cc1cc(=O)[nH]c(=O)n1[C@H]1CC(C)(CO)[C@@H](CO)O1 (mixture of isomers) ; value = > 500 µM

// field: CC50 at 24 h; key: Nc1ccn([C@@H]2O[C@H](CO)[C@@H](O)[C@@H]2O)c(=O)n1 [Cytarabine, reference compound] ; value = > 500 µM

// field: CC50 at 24 h; key: CCOC(=O)[C@@H]1O[C@H](n2cc(C)c(=O)[nH]c2=O)CC1(C)C(=O)OCC (some centres unmarked) ; value = > 460 µM

// field: CC50 at 24 h; key: COC(=O)C1(C)C[C@H](n2cc(F)c(=O)[nH]c2=O)O[C@@H]1CO (mixture of isomers) ; value = > 500 µM

// field: CC50 at 24 h; key: Cc1cn([C@@H]2CC(C)(CO)[C@@H](CO)O2)c(=O)[nH]c1=O (mixture of isomers) ; value = > 500 µM

// field: CC50 at 24 h; key: C[C@@]12CC(n3ccc(N)nc3=O)O[C@@H]1COC2=O (mixture of isomers) ; value = > 500 µM

// field: CC50 at 24 h; key: COC(=O)C1(C)C[C@@H](n2ccc(=O)[nH]c2=O)O[C@@H]1CO (mixture of isomers) ; value = > 500 µM

// field: CC50 at 24 h; key: CC1(C(N)=O)CC(n2cc(F)c(N)nc2=O)O[C@@H]1CO (mixture of isomers) ; value = > 500 µM

----------
assay_comment: in vitro
condition_description: human, NCI H2052 cells
quantity_measured: CC50 at 24 h

// field: CC50 at 24 h; key: COC(=O)C1(C)CC(n2cc(C)c(=O)[nH]c2=O)OC1CO (racemic) ; value = > 500 µM

// field: CC50 at 24 h; key: C[C@@]12CC(n3ccc(N)nc3=O)O[C@@H]1COC2=O (mixture of isomers) ; value = > 500 µM

// field: CC50 at 24 h; key: CC1(C(N)=O)CC(n2ccc(N)nc2=O)O[C@@H]1CO (mixture of isomers) ; value = > 500 µM

// field: CC50 at 24 h; key: CC1(C(N)=O)CC(n2cc(F)c(N)nc2=O)O[C@@H]1CO (mixture of isomers) ; value = > 500 µM

// field: CC50 at 24 h; key: COC(=O)C1(C)C[C@H](n2ccc(=O)[nH]c2=O)O[C@@H]1CO (mixture of isomers) ; value = > 500 µM

// field: CC50 at 24 h; key: COC(=O)C1(C)C[C@@H](n2cc(C)c(=O)[nH]c2=O)O[C@@H]1CO (mixture of isomers) ; value = 295 µM

// field: CC50 at 24 h; key: CC1(CO)C[C@@H](n2ccc(=O)[nH]c2=O)O[C@@H]1CO (mixture of isomers) ; value = > 500 µM

// field: CC50 at 24 h; key: CCOC(=O)[C@@H]1O[C@H](n2cc(F)c(=O)[nH]c2=O)CC1(C)C(=O)OCC (stereo in doubt) ; value = > 460 µM

// field: CC50 at 24 h; key: Nc1ccn([C@@H]2O[C@H](CO)[C@@H](O)[C@@H]2O)c(=O)n1 [Cytarabine, reference compound] ; value = > 500 µM

// field: CC50 at 24 h; key: Cc1cc(=O)[nH]c(=O)n1[C@H]1CC(C)(CO)[C@@H](CO)O1 (mixture of isomers) ; value = > 500 µM

// field: CC50 at 24 h; key: CC1(CO)CC(n2ccc(N)nc2=O)O[C@@H]1CO (mixture of isomers) ; value = > 500 µM

// field: CC50 at 24 h; key: Cc1cn([C@H]2CC(C)(CO)[C@@H](CO)O2)c(=O)[nH]c1=O (mixture of isomers) ; value = > 500 µM

// field: CC50 at 24 h; key: C[C@@]12CC(n3cc(F)c(N)nc3=O)O[C@@H]1COC2=O (mixture of isomers) ; value = > 500 µM

// field: CC50 at 24 h; key: COC(=O)C1(C)C[C@H](n2cc(C)c(=O)[nH]c2=O)O[C@@H]1CO (mixture of isomers) ; value = > 500 µM

// field: CC50 at 24 h; key: Cc1cc(=O)[nH]c(=O)n1[C@H]1CC2(C)C(=O)OC[C@H]2O1 (single isomer, unassigned) ; value = > 500 µM

// field: CC50 at 24 h; key: CCOC(=O)[C@@H]1O[C@H](n2ccc(=O)[nH]c2=O)CC1(C)C(=O)OCC (stereo partly shown) ; value = > 460 µM
